Target: Protease (Human immunodeficiency virus 1) (UniProt Q9YQ12)
Sequence (Q9YQ12 as listed by the source): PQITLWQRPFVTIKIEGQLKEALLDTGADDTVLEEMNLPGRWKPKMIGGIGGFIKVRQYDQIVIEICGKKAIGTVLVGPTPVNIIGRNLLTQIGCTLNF
Assay: Inhibition of HIV-1 protease using DABCYL-Abu-Ser-Gln-Asn-Tyr-Pro-Ile-Val-Gln-EDANS as substrate preincubated at 10 uM for 15 mins before substrate addition measured over 15 mins by fluorometric assay
measurement_label: inhibition (%)
Response body: numeric value in %, unit text excluded.

[Q] Quickly give me recorded inhibition for C#CCNC(=O)[C@@H]1O[C@@H]2O[C@H]1C(=O)N(Cc1ccccc1)[C@H]2Cc1ccccc1
[A] 78

[Q] Report inhibition for CCOC(=O)N1CCN(C(=O)[C@@H]2O[C@H]3CN(Cc4ccccc4)C(=O)[C@@H]2O3)CC1
[A] 57

[Q] Entry CCCNC(=O)[C@@H]1O[C@@H]2O[C@H]1C(=O)N(Cc1ccccc1)[C@H]2Cc1ccccc1 needs its inhibition filled in; supply it.
[A] 56

[Q] Look up and report measured inhibition for this entry: O=C([C@@H]1O[C@@H]2O[C@H]1C(=O)N(Cc1ccccc1)[C@@H]2Cc1ccccc1)N1CCC[C@H]1CO
[A] 58

[Q] Give a short answer stating reported inhibition for O=C([C@@H]1O[C@H]2CN(Cc3ccccc3)C(=O)[C@@H]1O2)N1CCCCC1 .
[A] 21

[Q] Answer with reported inhibition of CC(C)CCNC(=O)[C@@H]1O[C@@H]2O[C@H]1C(=O)N(Cc1ccccc1)[C@H]2Cc1ccccc1
[A] 75

[Q] For the molecule O=C1[C@@H]2O[C@H](CN1Cc1ccccc1)O[C@H]2C(=O)N1CCC[C@@H]1CO , report inhibition.
[A] 77

[Q] Provide inhibition value for the following molecule: CCCCNC(=O)[C@@H]1O[C@@]2(c3ccccc3)CN(C(c3ccccc3)c3ccccc3)C(=O)[C@@H]1O2
[A] 66

[Q] Report measured inhibition; entry is O=C([C@@H]1O[C@@]2(c3ccccc3)CN(C(c3ccccc3)c3ccccc3)C(=O)[C@@H]1O2)N1CCN(CCO)CC1
[A] 71
